// data source = patent US11702475B2

method: Analytical size exclusion chromatography (percent monomer)
Assay type: physicochemical
recordedConditions: NEM-conjugated cysteine variants; SEC, Abs280 monomer region 5.5-6 minutes vs oligomer region 4-5.3 minutes
measurementKind: Percent monomer (%)

>>> numericreadout("T81C (conjugate, left off: small tags and cut ends) LPAPKNLVVSEVTEDSARLSWDDPWAFYESFLIQYQESEKVGEAIVLTVPGSERSYDLTGLKPGTEYTVSIYGVHNVYKDCNMRGLPLSAIFTT")
86
>>> numericreadout("E43C (conjugate, left off: small tags and cut ends) LPAPKNLVVSEVTEDSARLSWDDPWAFYESFLIQYQESEKVGCAIVLTVPGSERSYDLTGLKPGTEYTVSIYGVHNVYKDTNMRGLPLSAIFTT")
100
